This section presents compounds with their documented Activity values.
# System Name: UDP-N-acetylglucosamine 1-carboxyvinyltransferase (Escherichia coli K-12)
# Experiment: Inhibition of recombinant Escherichia coli MurA assessed as residual activity at 500 uM using UDP-N-acetylglucosamine as substrate and measured by malachite green based colorimetric assay relative to control

Examples with their reported Activity follow.
Nc1nc(-c2ccncc2)cs1 | 86.7%
Cc1csc(N)n1 | 99.3%
COC(=O)c1csc(Br)n1 | 106%
Fc1ccc(-c2csc(Br)n2)cc1F | 89.1%
O=S(=O)(Cc1ccccc1)Nc1nccs1 | 0%

Returns the measured Activity for the input compound. Input: COC(=O)CC(=O)Nc1ncc(Br)s1
97.9%

Record request: Activity value, item CCOC(=O)Cc1csc(N)n1
85.5%

Returns the measured Activity for the input compound. Input: Cc1cnc(Br)s1
45.2%

If you can, please state the reported Activity value of CCOC(=O)c1csc(N)n1 .
18.6%

Consider the compound shown here: CCOC(=O)Cc1csc(Br)n1 What is its recorded Activity?
86.7%

// query Activity value for entry O=C(O)Cc1csc(Br)n1
105%

Which Activity value is on record for Nc1ccc(S(=O)(=O)Nc2nccs2)cc1 [SULFATHIAZOLE] ?
96.5%

I have this compound here, O=C(O)c1csc(-c2ccc(F)cc2)n1 , and I need its recorded Activity.
58.7%

Requested field: Activity. Item: CNc1nnc(C(F)(F)F)s1
99.5%

Need Activity of CCOC(=O)c1cnc(Br)s1 , thanks.
60.1%

Activity for COC(=O)CC(=O)Nc1ncc(C#N)s1 ?
29.7%

If you can, please state the reported Activity value of Brc1cnc(Br)s1 .
13.1%

Which measured Activity value corresponds to COC(=O)C(=O)Nc1ncc(Br)s1 ?
81.7%

Item under review: O=C(O)c1csc(Br)n1 . Reported Activity?
102%

Entry O=C(O)c1csc(Nc2cccc3ncccc23)n1 has what Activity?
1.4%

Find the recorded Activity belonging to Nc1ncc(Br)s1 and report it.
21.1%

Consider the compound shown here: Cc1nc(Br)sc1C(=O)O What is its recorded Activity?
72.4%

Given Nc1nnc(C(F)(F)F)s1 , state its recorded Activity.
56.9%

Item under review: Cc1nc(-c2ccc(C(=O)O)cc2)cs1 . Reported Activity?
102%

If you can, please state the reported Activity value of Cc1cnc(N)s1 .
95.2%

Activity lookup needed for Cc1nc(C(=O)O)cs1 , thanks.
7.2%

* * *

# System Name: Replicase polyprotein 1ab (Severe acute respiratory syndrome coronavirus 2)
# Experiment: Inhibition of recombinant SARS-CoV-2 3CLpro expressed in Escherichia coli NiCo21(DE3) assessed as residual activity at 500 uM using DABCYL-KTSAVLQSGFRKME-EDANS as substrate preincubated for 30 mins in presence of 1mM DTT followed by substrate addition and measured by FRET assay relative to control
Quantity Kind: Activity
Quick note: number first, unit second.

For orientation, consider the following solved cases.
CCOC(=O)c1csc(N)n1 | 76.3%
O=C(O)Cc1csc(Br)n1 | 68.6%
COC(=O)c1csc(Br)n1 | 68.6%
CCOC(=O)c1csc(Br)n1 | 80.7%
N#Cc1cnc(NC(=O)C(=O)O)s1 | 97.6%
COC(=O)CC(=O)Nc1ncc(Br)s1 | 86%
Clc1nccs1 | 73.8%
N#Cc1cnc(N)s1 | 74.1%
O=C(O)c1nc(Br)cs1 | 85.1%
O=S(=O)(Cc1ccccc1)Nc1nccs1 | 82.8%

Consider the compound shown here: N#Cc1cnc(NC(=O)CC(=O)O)s1 What is its recorded Activity?
79.7%

Endpoint output: Activity of O=C(O)C(=O)Nc1ncc(Br)s1 . Value?
82.8%

Using the record for O=C(O)c1csc(Br)n1 , report its Activity.
73.7%

Item Fc1ccc(-c2csc(Br)n2)cc1F has what recorded Activity?
78.9%

Endpoint output: Activity of Nc1nnc(C(F)(F)F)s1 . Value?
82.9%

Sample Brc1nncs1 — what was its Activity?
78.3%

// provenance: ChEMBL document CHEMBL5104216
